Ref: patent US20230048553A1

Consider the following binders; for each one, report its pEC50.
target: T1, human CCR8 (chemokine receptor 8) (human, UniProt P51685 1-355); assay: flow cytometry on huCCR8 Jurkat cells
T1 construct: whole, on cells; the assay field tells which cells; also called huCCR8
T1 sequence (P51685 whole entry): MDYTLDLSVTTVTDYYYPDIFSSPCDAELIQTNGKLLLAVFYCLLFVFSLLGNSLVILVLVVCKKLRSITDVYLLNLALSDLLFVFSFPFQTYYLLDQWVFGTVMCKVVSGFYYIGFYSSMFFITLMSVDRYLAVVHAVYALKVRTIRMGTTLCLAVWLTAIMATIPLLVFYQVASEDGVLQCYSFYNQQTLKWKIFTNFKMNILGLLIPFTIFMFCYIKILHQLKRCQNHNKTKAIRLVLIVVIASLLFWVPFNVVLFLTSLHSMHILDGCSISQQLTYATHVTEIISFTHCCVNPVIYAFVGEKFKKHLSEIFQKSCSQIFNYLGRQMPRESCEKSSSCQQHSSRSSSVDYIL
Numbers only, as −log10 of the molar value.

Items follow; give pEC50 for each.
1. AC-277483 (antibody, V domains shown) VH: EVQLVESGGGLVQPGGSLKLSCAASGFIFSNAVMYWVRQASGKGLEWVARIKTKFNNYATYYADAVKGRFTISRDDSKNMVYLQMNSLKTEDTAVYYCTAGDRNKPFAYWGQGTLVTVSS VL: ETVVTQSPATLSLSPGERATLSCRASDAVITLLHWFQQKPGQAPRLLIHGASNLESRVPARFSGSGSGTDFTLTISSLEPEDFATYFCQQSWNDPYTFGQGTKLEIKR
2. AC-264700 (antibody, V domains shown) VH: EVQLVESGGGLVQPGGSLKLSCAASGFIFSNAVMYWVRQASGKGLEWVARIKTKFNNYATYYADSVKGRFTISRDDSKNMVYLQMNSLKTEDTAVYYCTAGDRNKPFAYWGQGTLVTVSS VL: ETVVTQSPATLSLSPGERATLSCRASDSVITLLHWFQQKPGQAPRLLIHGASNLESRVPARFSGSGSGTDFTLTISSLEPEDFATYFCQQSWNDPYTFGQGTKLEIKR
3. AC-277357 (fucosylated) (antibody, human IgG1, kappa, V domains shown, AC-264700 with LCDR1 D27→T. Human IgG1 kappa) VH: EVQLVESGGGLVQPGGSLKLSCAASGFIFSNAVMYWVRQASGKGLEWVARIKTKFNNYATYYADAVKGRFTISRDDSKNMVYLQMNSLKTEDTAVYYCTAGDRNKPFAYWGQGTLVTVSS VL: ETVVTQSPATLSLSPGERATLSCRASTSVITLLHWFQQKPGQAPRLLIHGASNLESRVPARFSGSGSGTDFTLTISSLEPEDFATYFCQQSWNDPYTFGQGTKLEIKR
4. AC-277371 (antibody, V domains shown) VH: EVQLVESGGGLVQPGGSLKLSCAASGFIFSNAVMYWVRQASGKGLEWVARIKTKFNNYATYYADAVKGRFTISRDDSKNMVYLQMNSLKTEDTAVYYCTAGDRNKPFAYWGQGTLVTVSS VL: ETVVTQSPATLSLSPGERATLSCRASGSVITLLHWFQQKPGQAPRLLIHGASNLESRVPARFSGSGSGTDFTLTISSLEPEDFATYFCQQSWNDPYTFGQGTKLEIKR

1: 8.54; 2: 8.63; 3: 8.82; 4: 8.73
